System: 354836-022-R-J1-PDC multicell spheroid viability;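 also: spheroids exposed to agents for seven days before the viability read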
test_description: Anticancer human tumor 354836-022-R-J1-PDC patient-derived head and neck squamous cell carcinoma cell line growth inhibition [PI3K]; active = viability on the fitted dose curve at most 10% of control; inactive = the rest
condition_description: second compound 0.0316 µM; first compound 3.16 µM
Choose the fitting class; nothing outside 1 (yes) = active, 0 (no) = inactive is accepted.

Q) Called result for CC(C)NCC(C(=O)N1CCN(c2ncnc3c2C(C)CC3O)CC1)c1ccc(Cl)cc1 (stereo unspecified) + COc1c(OCCCN2CCOCC2)ccc2c3n(c(=NC(=O)c4cnc(N)nc4)nc12)CCN3
A) 1 (yes)

Q) Called result for CC(C)NCC(C(=O)N1CCN(c2ncnc3c2C(C)CC3O)CC1)c1ccc(Cl)cc1 (stereo unspecified) + Cc1nc(NC(=O)N2CCCC2C(N)=O)sc1-c1ccnc(C(C)(C)C(F)(F)F)c1
A) 0 (no)

Q) Called result for CC1(C)CCC(CN2CCN(c3ccc(C(=O)NS(=O)(=O)c4ccc(NCC5CCOCC5)c([N+](=O)[O-])c4)c(Oc4cnc5[nH]ccc5c4)c3)CC2)=C(c2ccc(Cl)cc2)C1 + CC(Nc1ncnc2nc[nH]c12)c1cc2cccc(Cl)c2c(=O)n1-c1ccccc1
A) 0 (no)

Q) Called result for CC(C)NCC(C(=O)N1CCN(c2ncnc3c2C(C)CC3O)CC1)c1ccc(Cl)cc1 (stereo unspecified) + CC(Nc1ncnc2nc[nH]c12)c1cc2cccc(Cl)c2c(=O)n1-c1ccccc1
A) 0 (no)

Q) Called result for CCCS(=O)(=O)Nc1ccc(F)c(C(=O)c2c[nH]c3ncc(-c4ccc(Cl)cc4)cc23)c1F + CC(Nc1ncnc2nc[nH]c12)c1cc2cccc(Cl)c2c(=O)n1-c1ccccc1
A) 0 (no)

Q) Called result for Cn1ncc(Cl)c1-c1cc(C(=O)NC(CN)Cc2cccc(F)c2)sc1Cl (stereo unspecified) + CC(Nc1ccc2c(c1)OCCn1cc(N3C(=O)OCC3C(F)F)nc1-2)C(N)=O
A) 0 (no)
